Measured values drawn from patent US5238962A for this set.

- test.description: toxicity (LD50, p.o. in mice)
- condition: mouse, in vivo, po
Form field: LD50 (one value per entry).

Record excerpt, results attached:
Inquiry: Given NCCNC(=O)c1ccc(Cl)cc1 [N-(2-Aminoethyl)-p-chlorobenzamide] , state its recorded LD50.
Reply text: 1000 to 2000 mg/kg

Inquiry: Given NCCNC(=O)c1ccc(Cl)cc1Cl [N-(2-Aminoethyl)-2,4-dichlorobenzamide, N-(2-aminoethyl)-2,4-dichlorobenzamide] , state its recorded LD50.
Reply text: 625 to 1250 mg/kg

Inquiry: Given NCCNC(=O)c1ccccc1 [N-(2-Aminoethyl)benzamide] , state its recorded LD50.
Reply text: > 5000 mg/kg

Inquiry: Given NCCNC(=O)c1ccc(Br)cc1 [N-(2-Aminoethyl)-p-bromobenzamide] , state its recorded LD50.
Reply text: 500 to 1000 mg/kg

Inquiry: Given NCCNC(=O)c1ccc(F)cc1 [N-(2-Aminoethyl)-p-fluorobenzamide] , state its recorded LD50.
Reply text: > 5000 mg/kg

# evaluate next
Inquiry: Given NCCNC(=O)c1ccc(Cl)c(Cl)c1 [N-(2-Aminoethyl)-3,4-dichlorobenzamide, N-(2-aminoethyl)-3,4-dichlorobenzamide] , state its recorded LD50.
Reply text: 1000 to 2000 mg/kg

----------
- target.of.assay: monoamine oxidase (MAO) (Rattus norvegicus, UniProt P19643)
- Construct: from tissue; host or cells: rat brain and liver homogenates
- Sequence (P19643 1-520): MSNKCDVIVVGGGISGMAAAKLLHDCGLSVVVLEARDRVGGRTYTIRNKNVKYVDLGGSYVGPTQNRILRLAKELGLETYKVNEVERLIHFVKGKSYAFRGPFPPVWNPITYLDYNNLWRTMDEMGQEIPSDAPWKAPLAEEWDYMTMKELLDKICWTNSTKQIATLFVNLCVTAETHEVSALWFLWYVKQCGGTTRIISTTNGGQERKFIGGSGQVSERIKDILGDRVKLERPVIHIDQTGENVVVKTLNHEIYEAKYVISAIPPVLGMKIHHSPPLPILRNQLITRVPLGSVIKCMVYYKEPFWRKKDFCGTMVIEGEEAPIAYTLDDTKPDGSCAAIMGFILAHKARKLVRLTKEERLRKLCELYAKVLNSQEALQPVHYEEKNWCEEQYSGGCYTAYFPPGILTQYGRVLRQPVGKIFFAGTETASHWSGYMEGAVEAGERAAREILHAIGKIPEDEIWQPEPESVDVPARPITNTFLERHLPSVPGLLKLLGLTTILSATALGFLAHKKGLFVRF
- test.description: MAO inhibiting activity in homogenates of brain and liver of rats after oral administration (phenethylamine as substrate)
- Format: in vivo
- condition: 2 h, p.o. in rats, killed two hours after administration, homogenates of the brain and the liver, phenethylamine 2.10^-5 mol.1^-1 as substrate
observable: ED50 (µmol/kg)
Provide the reading as a plain figure in µmol/kg.

Record excerpt, results attached:
Inquiry: Given NCCNC(=O)c1ccccc1 [N-(2-Aminoethyl)benzamide] , state its recorded ED50.
Reply text: 20

Inquiry: Given NCCNC(=O)c1ccc(Br)cc1 [N-(2-Aminoethyl)-p-bromobenzamide] , state its recorded ED50.
Reply text: 4

Inquiry: Given NCCNC(=O)c1ccc(F)cc1 [N-(2-Aminoethyl)-p-fluorobenzamide] , state its recorded ED50.
Reply text: 4

Inquiry: Given NCCNC(=O)c1ccc(Cl)cc1Cl [N-(2-Aminoethyl)-2,4-dichlorobenzamide, N-(2-aminoethyl)-2,4-dichlorobenzamide] , state its recorded ED50.
Reply text: 1.5

# evaluate next
Inquiry: Given NCCNC(=O)c1ccc(Cl)c(Cl)c1 [N-(2-Aminoethyl)-3,4-dichlorobenzamide, N-(2-aminoethyl)-3,4-dichlorobenzamide] , state its recorded ED50.
Reply text: 10.3
